// reported MIC per item
# Tested on: Staphylococcus aureus
# Assay remarks: Antimicrobial activity against methicillin-resistant Staphylococcus aureus 0020 after 20 hrs by serial twofold dilution method
# Format: functional
# Condition details: Staphylococcus aureus, 0020, 20 h
Use µg/mL as the unit, but write only the number.

{"Molecule": "COc1cc2c(cc1OC)-c1c(c(C=O)cc3ccc(O)c(OC)c13)C2=O", "MIC / µg/mL": 16}
{"Molecule": "COc1cc(-c2c3c(cc4cc(OC)c(O)cc24)C(=O)OC3)ccc1O [DETETRAHYDROCONIDENDRIN]", "MIC / µg/mL": 4}
{"Molecule": "COc1cc(-c2cc(C=O)cc3cc(OC)c(O)cc23)ccc1O", "MIC / µg/mL": 64}

With those in mind, consider the next molecule.
Req: Value wanted: MIC (Staphylococcus aureus) of entry COc1cc2c(cc1OC)C(O)c1c(C=O)cc3ccc(O)c(OC)c3c1-2 (centres undefined)
Resp: 64
